Data credit: the RepoRT retention time repository (doi:10.1021/acs.analchem.1c00972)

# testSummary: RP, Waters ACQUITY UPLC BEH C18, 100 × 1 mm, 1.7 µm, 50 °C, 0.3 mL/min, estimated dead time 0.17 min; A: water + 10 mM ammonium bicarbonate; B: 10% water + 90% methanol + 10 mM ammonium bicarbonate; gradient (min/%B) 0/0 15/100 21/100 22/0 30/0
# experimentalConditions: stereoisomer not certain
Note to self: values exactly at 10 min are t. So LC retention time at or above 10 min is t, below is f.

* CCN(CC)CC(=O)Nc1c(C)cccc1C [Lidocaine] | t
* COc1nc(NC(C)C)nc(NC(C)C)n1 [Prometon] | t
* Nc1c(Cl)c(Cl)nc(C(=O)O)c1Cl [Picloram] | f
* O=S(=O)(c1ccc(Cl)cc1)c1ccc(Cl)cc1 [Bis(4-chlorophenyl)sulfone] | t
* Oc1cc(-c2ccc(Cl)cc2)ccc1Cl [3-Hydroxy-4,4'-dichlorobiphenyl] | t
* Cc1cc(C)nc(NS(=O)(=O)c2ccc(N)cc2)n1 [Sulfamethazine] | f
* CSc1nc(N)nc(NC(C)(C)C)n1 [Irgarol-Metabolit 1 (Terbutryn-desethyl)] | t
* CC(=O)Nc1ccc(O)cc1 [Acetaminophen] | f
* CN1Cc2c(ccc3c2OCO3)C2C(O)Cc3cc4c(cc3C21)OCO4 (single isomer, unassigned; (+)) [(+)-Chelidonine] | t
* O=C(O)c1ccc(Cl)cc1Cl [2,4-Dichlorobenzoic acid] | f
* CC(C)c1nc(CN(C)C(=O)NC(C(=O)NC(Cc2ccccc2)CC(O)C(Cc2ccccc2)NC(=O)OCc2cncs2)C(C)C)cs1 (stereo unspecified) [Ritonavir] | t
* Cc1ccc(C=C2C(=O)C3(C)CCC2C3(C)C)cc1 (stereo unspecified) [4-Methylbenzylidene camphor] | t
* Oc1c(Cl)cc(-c2ccc(Cl)cc2)cc1Cl [4-Hydroxy-3,4',5-trichlorobiphenyl] | t
* COCCOCCOCCOCCOC [Tetraglyme] | f
* Cc1ccccc1N [o-Toluidine] | f
* CCCCCCCCCCS(=O)(=O)O [1-Decanesulfonic acid] | t
* CC(C)(O)c1ccccc1CCC(SCC1(CC(=O)O)CC1)c1cccc(C=Cc2ccc3ccc(Cl)cc3n2)c1 (stereo unspecified) [Montelukast] | t
* CN(C)CCCC1(c2ccc(F)cc2)OCc2cc(C#N)ccc21 (stereo unspecified) [Citalopram] | t
* CCc1cccc(C)c1N(C(=O)CS(=O)(=O)O)C(C)COC (stereo unspecified) [Metolachlor ESA] | t
* CC(O)C(=O)Nc1c(I)c(C(=O)NC(CO)CO)c(I)c(C(=O)NC(CO)CO)c1I (stereo unspecified) [Iopamidol] | f
* CCOP(=S)(OCC)Oc1ccc(=O)n(-c2ccccc2)n1 [Pyridaphenthion] | t
* Cc1cc(O)ccc1Cl [p-Chlorocresol] | t
* CNC1(c2ccccc2Cl)CCCCC1=O (stereo unspecified) [Ketamine] | t
* Cc1cc(C(C)(C)c2ccc(O)c(C)c2)ccc1O [Bisphenol C] | t
* Cc1nnc(NS(=O)(=O)c2ccc(N)cc2)s1 [Sulfamethizol] | f
* O=S(=O)(O)c1ccc2ccccc2c1 [2-Naphthalene sulfonic acid] | f
* CC(C)=CCOc1c2occc2cc2ccc(=O)oc12 [Imperatorin] | t
* COc1ccc(C(=O)c2ccccc2)c(O)c1 [Benzophenone-3] | t
* CC=C(C)C(=O)OC1CC[N+]2([O-])CC=C(COC(=O)C(O)(C(C)OC)C(C)(C)O)C12 (stereo unspecified) [Lasiocarpine N-oxide] | t
* CC(C)CN(CC(O)C(Cc1ccccc1)NC(=O)OC1COC2OCCC12)S(=O)(=O)c1ccc(N)cc1 (stereo unspecified) [Darunavir] | t
* C=CC1C(OC2OC(CO)C(O)C(O)C2O)OC=C2C(=O)OCCC21 (stereo unspecified) [Sweroside] | f
* N#Cc1c[nH]cc1-c1cccc2c1OC(F)(F)O2 [Fludioxonil] | t
* CCN1CCN(C(=O)NC(C(=O)NC2C(=O)N3C(C(=O)O)=C(CSc4nnnn4C)CSC23)c2ccc(O)cc2)C(=O)C1=O (stereo unspecified) [Cefoperazone] | f
* CNC(=O)Nc1ccc(C(C)C)cc1 [1-(4-Isopropylphenyl)-3-methyl-Harnstoff] | t

---

Each item that follows carries a reported LC retention time.
# testSummary: RP, Waters ACQUITY UPLC BEH C18, 100 × 1 mm, 1.7 µm, 50 °C, 0.3 mL/min, estimated dead time 0.17 min; A: water + 0.1% formic acid + 20 mM ammonium formate; B: methanol + 0.1% formic acid + 20 mM ammonium formate; gradient (min/%B) 0/0 15/100 21/100 22/0 30/0
# experimentalConditions: stereoisomer not certain
observedProperty: LC retention time (min)

- CC[N+]1([O-])CCCC1CNC(=O)c1cc(S(=O)(=O)CC)c(N)cc1OC (stereo not given) [Amisulpride N-Oxide]: 8.4
- CCCCCCCCCCCC(=O)NCC(C)O (stereo not given) [Lauric isopropanolamide]: 16.7
- CCc1cccc(CC)c1N(COC)C(=O)CS(=O)(=O)O [Alachlor tert-sulfonic acid (ESA)]: 11.8
- C=CCOC(=O)C(C)(C)OC(=O)c1cc(-n2c(=O)cc(C(F)(F)F)n(C)c2=O)ccc1Cl: 14.8
- CCCc1cc(=O)[nH]c(=S)[nH]1: 7.69
- Clc1nc2ccccc2s1: 13.5
- NC(=O)N=C1SCCN1Cc1ccc(Cl)nc1 [Thiacloprid amide]: 8.82
- CC(=O)c1ccc2ccccc2c1: 13.5
- COc1ccc(-c2ccccc2)cc1NNC(=O)OC(C)C [Bifenazate]: 14.7
- COCCc1ccc(OCC(O)CNC(C)C)cc1 (stereo not given): 9.58
- CCCCCC(C)OC(=O)COc1ccc(Cl)c2cccnc12 (stereo not given): 16.9
- Cc1cccc(C)c1NC(=O)C1CCCCN1C (stereo not given) [Mepivacaine]: 8.36
- CC1C(=O)OC2CCN3CC=C(COC(=O)C(C)(O)C1(C)O)C23 (stereo not given): 5.17
- CCSCCSP(=O)(OC)OC: 11.8
- COP(=O)(OC)OC(Br)C(Cl)(Cl)Br (stereo not given): 13.3
- CC1=NNC(=O)N(N=Cc2cccnc2)C1: 5.76
- Nc1ncnc2nc[nH]c12: 5.28
- O=C1Nc2ccc(Cl)cc2C(c2ccccc2Cl)=NC1O (stereo not given): 13.2
- Cc1cnc(NC(=O)C2=C(O)c3ccccc3S(=O)(=O)N2C)s1: 13.3
- COc1cc2c(cc1OC)C1Cc3ccc(OC)c(OC)c3CN1CC2 (stereo not given) [Tetrahydropalmatin]: 9.6

---

# testSummary: RP, Phenomenex Synergi Polar-RP, 100 × 3 mm, 2.5 µm, 40 °C, 0.4 mL/min, estimated dead time 1.1 min; A: water + 1 mM ammonium fluoride; B: methanol + 1 mM ammonium fluoride; C: acetonitrile; D: 50% isopropanol + 50% acetone; gradient (min/%B/%C/%D) 0/5/0/0 2/5/0/0 8/95/0/0 12/80/15/0 19/25/70/0 19.5/0/25/70 21.5/0/25/70 22.5/0/25/0 23/5/0/0
# experimentalConditions: stereoisomer not certain
LC retention time under 10 min gets satisfied, anything at or over 10 min gets not satisfied.

- CC(O)(CS(=O)(=O)c1ccc(F)cc1)C(=O)Nc1ccc(C#N)c(C(F)(F)F)c1 (centres undefined) [Bicalutamide]: not satisfied
- COc1c(C)c2c(c(O)c1CC=C(C)CCC(=O)O)C(=O)OC2: not satisfied
- O=[N+]([O-])c1ccc(O)cc1: satisfied
- O=C(O)C(F)(F)C(F)(F)C(F)(F)C(F)(F)C(F)(F)C(F)(F)C(F)(F)C(F)(F)C(F)(F)F: satisfied
- N#Cc1nn(-c2c(Cl)cc(C(F)(F)F)cc2Cl)c(N)c1C(F)(F)F: not satisfied
- O=c1[nH]cc(F)c(=O)[nH]1: satisfied
- O=c1cc[nH]c(=S)[nH]1: satisfied
- COc1cc(O)c(C(=O)c2ccccc2)cc1S(=O)(=O)O: satisfied

---

Each item that follows carries a reported LC retention time.
# testSummary: RP, Waters ACQUITY UPLC BEH C18, 100 × 1 mm, 1.7 µm, 50 °C, 0.3 mL/min, estimated dead time 0.17 min; A: water + 0.1% formic acid + 20 mM ammonium formate; B: methanol + 0.1% formic acid + 20 mM ammonium formate; gradient (min/%B) 0/0 15/100 21/100 22/0 30/0
# experimentalConditions: stereoisomer not certain
observedProperty: LC retention time (min)

• CCCCCCCC(O)CC(=O)O (stereo not drawn) [3-Hydroxycapric acid] = 12.3
• CCC(=O)OC(Cc1ccccc1)(c1ccccc1)C(C)CN(C)C (stereo not drawn) [Propoxyphene] = 12.5
• CCS(=O)(=O)c1nnc(N(C)C(=O)NC)s1 [Ethidimuron] = 8.76
• CNC(=O)ON=CC(C)(C)SC [Aldicarb] = 16.1
• COC(C)C(O)(C(=O)OCC1=CC[N+]2([O-])CCC(O)C12)C(C)(C)O (stereo not drawn) [Europine N-oxide] = 6.99
• CC(=O)OC12COC1CC(O)C1(C)C(=O)C(O)C3=C(C)C(O)CC(O)(C(OC(=O)c4ccccc4)C21)C3(C)C (stereo not drawn) [10-Deacetylbaccatin III] = 11.7
• NCC(O)COc1ccc(CC(N)=O)cc1 (stereo not drawn) [Atenolol-desisopropyl] = 12.3
• CC1CC2(OC2C)C(=O)OC2CC[N+]3([O-])CC=C(COC(=O)C1(C)O)C23 (stereo not drawn) [Jacobine N-oxide] = 6.84
• CC12C=CC(=O)C=C1CCC1C2C(=O)CC2(C)C1CCC2(O)C(=O)CO (stereo not drawn) [Prednisone] = 12
• COc1c(C(C)(C)C)cc([N+](=O)[O-])c(C)c1[N+](=O)[O-] [Musk ambrette] = 8.38
• COCCOC(=O)c1ccccc1C(=O)OCCOC [Bis(2-methoxyethyl)phthalate] = 12.3
• Cc1ccc(OP(=O)(Oc2ccccc2)Oc2ccccc2)cc1 [Diphenyltolyl phosphate] = 16.3
• CC1CCN(CCCC(=O)c2ccc(F)cc2)CC1 [Melperon] = 10
• Oc1cc(-c2ccc(Cl)cc2)ccc1Cl [3-Hydroxy-4,4'-dichlorobiphenyl] = 15.9
• CCOC(=O)C1=NOC(c2ccccc2)(c2ccccc2)C1 [Isoxadifen-ethyl] = 15.4
• CNC(=O)ON=C(CSC)C(C)(C)C [Thiofanox] = 11.7
• Cn1cnc2c1c(=O)[nH]c(=O)n2C [Theobromine] = 5.9
• CC(C)(C#N)c1cc(Cn2cncn2)cc(C(C)(C)C#N)c1 [Anastrozole] = 11.3
